Molecular target: ACS2P1-biotin binding to fetuin (Bos taurus, UniProt P12763)
Construct: purchased Sigma Chemical Company
Sequence (P12763 19-359): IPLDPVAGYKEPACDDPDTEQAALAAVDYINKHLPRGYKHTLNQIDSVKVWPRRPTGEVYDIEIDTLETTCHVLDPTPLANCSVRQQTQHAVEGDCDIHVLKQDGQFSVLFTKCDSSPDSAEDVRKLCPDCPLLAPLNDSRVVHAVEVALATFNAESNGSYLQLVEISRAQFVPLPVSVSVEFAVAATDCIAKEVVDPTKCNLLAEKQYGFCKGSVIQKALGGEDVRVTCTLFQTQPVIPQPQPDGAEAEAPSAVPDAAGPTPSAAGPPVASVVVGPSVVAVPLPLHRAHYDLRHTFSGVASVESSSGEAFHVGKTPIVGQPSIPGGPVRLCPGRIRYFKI
Assay: biochemical
Conditions: peptide μM: ACS2P1 4.1, S2P2 42.5, SPYGRC 5520, S2P3 22.4, S2P4 6.0, S2P6 319, S3P1 1142, S3P2 934, S3P3 16.1, S3P4 6.4, S3P5 22.5; ACS2P1-biotin 0.1 μg; − inhibition, + enhancement
Parameter: Percent Change in Binding Activity Fetuin. Scope: all listed entries.
measured.metric: Percent Change in Binding Activity Fetuin (%)

substance | unit.tag | reported
CITTIYKTGQPAADHYYSKVTA [Peptide S3P3] | % | −13
CASPYEGRYRDMYDALRRLLY [Peptide S3P5] | % | −19
YDGKYWSMYSRLRKMLY [Peptide S2P4] | % | −8
SPYGRC-CO—NH2 | % | −24

====

Target: MAL-biotin binding to fetuin (Bos taurus)
Construct: purchased Sigma Chemical Company (fetuin); Boehringer Mannheim (MAL-biotin)
Sequence (P12763 19-359): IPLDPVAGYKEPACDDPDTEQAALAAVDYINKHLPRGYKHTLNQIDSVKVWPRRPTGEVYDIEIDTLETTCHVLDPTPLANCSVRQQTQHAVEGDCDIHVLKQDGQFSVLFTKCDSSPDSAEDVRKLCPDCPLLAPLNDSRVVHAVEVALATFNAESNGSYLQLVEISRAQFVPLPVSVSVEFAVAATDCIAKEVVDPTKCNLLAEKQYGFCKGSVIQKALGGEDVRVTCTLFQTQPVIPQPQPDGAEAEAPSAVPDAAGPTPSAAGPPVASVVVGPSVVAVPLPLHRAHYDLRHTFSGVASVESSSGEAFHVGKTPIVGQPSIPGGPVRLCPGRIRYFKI
Assay: MAL-biotin binding to fetuin, binding inhibition assay
Design: species or system Maackia amurensis
Details: peptide mg/mL: S2PL 1.2, ACS2P1 1.0, S2(14-2.3) 1.0, S2P2 1.1, S2P3 0.51, S2P4 0.98, S2P6 0.85, S3P1 3.2, S3P2 3.1, S3P3 4.5, S3P4 3.3, S3P5 0.48, S3P9a 1.7, SPYGRC 4.4, S2(WGA) 1.0, WGA (62-73) 1.0; + enhancement, − inhibition
Parameter: Percent Changes in Binding Activity MAL/fetuin. Scope: all listed entries.
measured.metric: Percent Changes in Binding Activity MAL/fetuin

substance | reported
TQHGSPYGRC [S2 (14-23)] | +32 ± 1%
SPYGRC-CO—NH2 | −16 ± 0%
YDGKYWSMYSRLRKMLY [Peptide S2P4] | +2(1) Percent
CITTIYKTGQPAADHYYSKVTA [Peptide S3P3] | +13 ± 15%
PKALFTQQGGAYGRC [Peptide S3P1] | +4 ± 6%
PQEQITQHGSPYGRC [Peptide S2P1] | +8 ± 4%
H-SQYGYCGFGAEY-OH [WGA (62-73)] | −1 ± 4%

====

Target: SNA-biotin binding to fetuin (Bos taurus, UniProt P12763)
Assay: biochemical
Conditions: peptide mg/mL: S2PL 1.2, ACS2P1 1.0, S2(14-2.3) 1.0, S2P2 1.1, S2P3 0.51, S2P4 0.98, S2P6 0.85, S3P1 3.2, S3P2 3.1, S3P3 4.5, S3P4 3.3, S3P5 0.48, S3P9a 1.7, SPYGRC 4.4, S2(WGA) 1.0, WGA (62-73) 1.0; + enhancement, − inhibition
Parameter: Percent Changes in Binding Activity SNA/fetuin. Scope: all listed entries.
measured.metric: Percent Changes in Binding Activity SNA/fetuin

sequence | reported
CASPYEGRYRDMYDALRRLLY [Peptide S3P5] | 0(1) Percent
YDGKYWSMYSRLRKMLY [Peptide S2P4] | +3(1) Percent
CITTIYKTGQPAADHYYSKVTA [Peptide S3P3] | +3 ± 0%
TQHGSPYGRC [S2 (14-23)] | +1 ± 2%
VAPGIVIPPKALFTQQGGAYGRC [Peptide S3P2] | +3 ± 3%
AGFIYRETFCITTIYKTGQPAADHYYSKVTA [Peptide S3P4] | +1(1) Percent

====

Parameter: Percent Changes in Binding Activity PT/fetuin. Scope: all listed entries.
Target: PT-biotin binding to fetuin (Bos taurus, UniProt P12763)
Construct: purchased Sigma Chemical Company (fetuin); Connaught Center for Biotechnology Research (PT)
Sequence (P12763 19-359): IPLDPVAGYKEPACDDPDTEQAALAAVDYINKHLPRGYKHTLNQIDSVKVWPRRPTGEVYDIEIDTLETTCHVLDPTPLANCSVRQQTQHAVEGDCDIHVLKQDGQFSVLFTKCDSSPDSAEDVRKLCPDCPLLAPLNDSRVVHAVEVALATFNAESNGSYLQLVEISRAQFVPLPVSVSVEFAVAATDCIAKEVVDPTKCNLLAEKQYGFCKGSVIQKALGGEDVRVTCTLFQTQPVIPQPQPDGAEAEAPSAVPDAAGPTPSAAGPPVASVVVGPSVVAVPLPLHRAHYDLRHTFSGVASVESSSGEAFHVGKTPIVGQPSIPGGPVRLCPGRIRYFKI
Test: PT-biotin binding to fetuin, binding inhibition assay
Set-up: species or system Bordetella pertussis
Conditions: peptide mg/mL: S2PL 1.2, ACS2P1 1.0, S2(14-2.3) 1.0, S2P2 1.1, S2P3 0.51, S2P4 0.98, S2P6 0.85, S3P1 3.2, S3P2 3.1, S3P3 4.5, S3P4 3.3, S3P5 0.48, S3P9a 1.7, SPYGRC 4.4, S2(WGA) 1.0, WGA (62-73) 1.0; + enhancement, − inhibition
measured.metric: Percent Changes in Binding Activity PT/fetuin

substance | reported
AGFIYRETFCITTIYKTGQPAADHYYSKVTA [Peptide S3P4] | +12 ± 2%
H-SQYGYCGFGAEY-OH [WGA (62-73)] | −32 ± 5%
SPYGRC-CO—NH2 | +34 ± 2%
YDGKYWSMYSRLRKMLY [Peptide S2P4] | +14 ± 22%
Ac-PQEQITQHGSPYGRC-NH2 [ACS2P1] | +89 ± 3%
PQEQITQHGSQYGYC [S2 (WGA)] | +79 ± 15%

====

Molecular target: WGA-biotin binding to fetuin (Bos taurus)
Assay: biochemical
Conditions: peptide mg/mL: S2PL 1.2, ACS2P1 1.0, S2(14-2.3) 1.0, S2P2 1.1, S2P3 0.51, S2P4 0.98, S2P6 0.85, S3P1 3.2, S3P2 3.1, S3P3 4.5, S3P4 3.3, S3P5 0.48, SPYGRC 4.4, S2(WGA) 1.0, WGA (62-73) 1.0; + enhancement, − inhibition
Parameter: Percent Changes in Binding Activity WGA/fetuin. Scope: all listed entries.
measured.metric: Percent Changes in Binding Activity WGA/fetuin

sequence | tested.target | reported
PQEQITQHGSPYGRC [Peptide S2P1] | WGA-biotin binding to fetuin (Bos taurus) | −18 ± 2%
CITTIYKTGQPAADHYYSKVTA [Peptide S3P3] | WGA-biotin binding to fetuin (Bos taurus) | +6 ± 3%
AGFIYRETFCITTIYKTGQPAADHYYSKVTA [Peptide S3P4] | WGA-biotin binding to fetuin (Bos taurus) | +13 ± 1%

====

Target: ACS2P1-biotin binding to fetuin (Bos taurus)
Construct: purchased Sigma Chemical Company
Sequence (P12763 19-359): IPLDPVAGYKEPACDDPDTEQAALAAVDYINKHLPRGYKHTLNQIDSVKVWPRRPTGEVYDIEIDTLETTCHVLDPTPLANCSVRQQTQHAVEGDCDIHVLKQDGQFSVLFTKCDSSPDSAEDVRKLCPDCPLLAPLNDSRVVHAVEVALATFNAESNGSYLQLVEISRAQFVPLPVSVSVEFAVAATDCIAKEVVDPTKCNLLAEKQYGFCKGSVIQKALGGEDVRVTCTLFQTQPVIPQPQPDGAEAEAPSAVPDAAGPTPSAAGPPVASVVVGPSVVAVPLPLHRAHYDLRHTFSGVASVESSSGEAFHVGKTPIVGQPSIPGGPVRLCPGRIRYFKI
Test: biochemical
Details: peptide μM: ACS2P1 4.1, S2P2 42.5, SPYGRC 5520, S2P3 22.4, S2P4 6.0, S2P6 319, S3P1 1142, S3P2 934, S3P3 16.1, S3P4 6.4, S3P5 22.5; ACS2P1-biotin 0.1 μg; − inhibition, + enhancement
measured.metric: Percent Change in Binding Activity Fetuin

sequence | tested.target | reported
VAPGIVIPPKALFTQQGGAYGRC [Peptide S3P2] | ACS2P1-biotin binding to fetuin (Bos taurus) | +88 ± 72%
PKALFTQQGGAYGRC [Peptide S3P1] | ACS2P1-biotin binding to fetuin (Bos taurus) | +245 ± 28%
AGFIYRETFCITTIYKTGQPAADHYYSKVTA [Peptide S3P4] | ACS2P1-biotin binding to fetuin (Bos taurus) | +55 ± 26%
